biological target: N NTD-LKR-CTD (SARS-CoV-2, UniProt P0DTC9 44-369); assay: fluorescence polarization
measured.quantity: Kd (nM)
Quick reminder: number only, in nM, skip the unit.

Q. What does the data say about its Kd? Entry: UUUCACCUCCCUUUCAGUUU (ssRNA) [20-nt ssRNA]
A. 6
